Please respond with reported z-score for every item in the list.
# assayComment: P. aeruginosa biofilm formation inhibitors, primary screen, strain PAO1, LB-PBS medium, absorbance 600 nm (AID 1176); note: test concentration not given here
# setupConditions: P. aeruginosa PAO1 growth/biofilm, A600, 12 h; higher = more signal
Answer with the value's number alone.

**Q:** Requested read-out: z-score. Entry: `CCOC(=O)CCN1C(=O)[C@H]2[C@H]3[C@H](O)[C@H](O)CC(=NNC(=O)OCC)[C@H]3CC[C@H]2C1=O`
**A:** 0.614

**Q:** Requested read-out: z-score. Entry: `C[C@@H](c1ccccc1)N1C(=O)[C@H]2[C@H]3[C@H](O)[C@H](O)CC(=NOCc4ccccc4)[C@@H]3CC[C@H]2C1=O`
**A:** -0.0819

**Q:** Requested read-out: z-score. Entry: `C=CC[C@@H]1C=C[C@H](ON=C2C[C@@H](O)[C@@H](O)[C@@H]3[C@@H]4C(=O)N(CC)C(=O)[C@@H]4CC[C@@H]23)[C@@H](CO)O1`
**A:** -0.0781

**Q:** Requested read-out: z-score. Entry: `COC(=O)[C@@H]1CC[C@H](C)[C@@H](c2ccc(C)cc2)N1C(=O)c1ccc(C=NO[C@@H](C)c2cc(-c3c(C)cc(C)cc3C)no2)cc1`
**A:** -0.925

**Q:** Requested read-out: z-score. Entry: Cc1cc2c(nc1C)CCCCN2CC(O)CN1CCCc2nc(-c3ccc(Br)cc3)ccc21 (stereo unspecified)
**A:** 0.38

**Q:** Requested read-out: z-score. Entry: CCOC(=O)[C@H](CC(C)C)NC(=O)CCC1CC(OC(=O)NCc2ccc3c(c2)OCO3)CC2(CCCC(COC(=O)NCCOc3ccccc3)O2)O1 (stereo partly specified)
**A:** -0.564

**Q:** Requested read-out: z-score. Entry: `CC(CCN1CCCc2nc(C)c(C)cc21)=NO[C@H](C)c1cn([C@H](CO)Cc2ccccc2)nn1`
**A:** -0.291

**Q:** Requested read-out: z-score. Entry: `CON=C(C)CCN1CCCc2nc(C)c(C)cc21`
**A:** 0.0981

**Q:** Requested read-out: z-score. Entry: COC(=O)[C@H](C)NC(=O)CCC1CC(OC(=O)NCc2cccc3ccccc23)CC2(CCCC(COC(=O)NCc3cccc(C(F)(F)F)c3)O2)O1 (stereo partly specified)
**A:** 0.593

**Q:** Requested read-out: z-score. Entry: CCC1=NOC(CCC2CC(OC(=O)NCc3cccc4c3OCO4)CC3(CCCC(COC(=O)NCCc4ccc(Cl)cc4)O3)O2)C1 (stereo unspecified)
**A:** 0.52

**Q:** Requested read-out: z-score. Entry: `CO[C@@H]1COC(=O)[C@H](CCSC)NC(=O)CC=C[C@@H](C)COC(=O)[C@@H]2CCCN2C(=O)CC=C[C@H]1C`
**A:** -0.92

**Q:** Requested read-out: z-score. Entry: `O=C1C2=CC[C@H]3C(=O)N(Cc4ccccc4)C(=O)[C@H]3[C@H]2[C@H](O)[C@@H]2O[C@H]12`
**A:** 0.0821

**Q:** Requested read-out: z-score. Entry: `CO[C@@H]1COC(=O)[C@H](COCc2ccccc2)NC(=O)CC=C[C@@H](C)[C@H](OC)COC(=O)[C@@H](C)NC(=O)CC=C[C@H]1C`
**A:** -0.908

**Q:** Requested read-out: z-score. Entry: `CCN1C(C)=C(C(=O)OC)[C@@H](c2ccccc2)N2C(=O)[C@](O)(C(=O)OC)CC(C(C)=O)=C12`
**A:** -0.242

**Q:** Requested read-out: z-score. Entry: `CCOC(=O)CCN1C(=O)[C@H]2[C@@H]3C(=CC[C@H]2C1=O)C(=O)[C@H]1O[C@H]1[C@H]3O`
**A:** 0.0335

**Q:** Requested read-out: z-score. Entry: `COc1ccc(O[C@H]2C=C[C@@H](C#Cc3ccccc3)O[C@@H]2CO)cc1`
**A:** 0.0372

**Q:** Requested read-out: z-score. Entry: `C#CCCCON=C1[C@H]2CCn3c(=O)n(Cc4cc5c(cc4Cl)OCO5)c(=O)n3[C@H]2[C@H](O)[C@@H]2O[C@H]12`
**A:** -0.106

**Q:** Requested read-out: z-score. Entry: `CC(CCN1CCCc2nc(C)c(C)cc21)=NOC[C@@H](C)[C@H](OCc1ccccc1)C(C)C`
**A:** -0.0417

**Q:** Requested read-out: z-score. Entry: `C=CC[C@@H]1C=C[C@H](Oc2ccc(C)cc2)[C@@H](COC(=O)NCc2cccc3ccccc23)O1`
**A:** 0.119

**Q:** Requested read-out: z-score. Entry: `COc1ccc(-c2cnnc(CCCn3ccnc3-c3ccccc3)n2)cc1`
**A:** 1.17

**Q:** Requested read-out: z-score. Entry: COC(=O)[C@H](C)NC(=O)CCC1CC(OC(=O)NCCc2ccc(F)cc2)CC2(CCCC(COC(=O)NCCOc3ccccc3)O2)O1 (stereo partly specified)
**A:** -0.0326
